All values here come from paper PMC8429170.

Molecular target: T1, GPR1-eYFP (human) (UniProt P46091)
T1 sequence: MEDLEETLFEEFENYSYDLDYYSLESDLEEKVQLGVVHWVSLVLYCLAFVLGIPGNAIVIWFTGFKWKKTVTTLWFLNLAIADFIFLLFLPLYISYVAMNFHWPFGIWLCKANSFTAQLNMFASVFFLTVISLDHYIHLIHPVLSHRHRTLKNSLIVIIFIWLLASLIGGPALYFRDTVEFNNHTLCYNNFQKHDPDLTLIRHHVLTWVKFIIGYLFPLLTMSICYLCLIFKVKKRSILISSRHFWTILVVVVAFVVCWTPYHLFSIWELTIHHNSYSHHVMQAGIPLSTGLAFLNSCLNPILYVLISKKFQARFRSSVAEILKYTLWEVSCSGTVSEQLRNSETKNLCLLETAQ
parameterMeasured: EC50 of arrestin3 recruitment to GPR1-eYFP (BRET with Rluc8-Arr3, COS-7 cells) (nM)
Give a bare numeral; the unit nM is implied.

Sample records with EC50 of arrestin3 recruitment to GPR1-eYFP (BRET with Rluc8-Arr3, COS-7 cells):
YFPGQFAF [Chem^149-156] ... 4
QRAGEDPHSFYFPGQFAFS [Chem^139-157] ... 3.1

// query May I ask what EC50 of arrestin3 recruitment to GPR1-eYFP (BRET with Rluc8-Arr3, COS-7 cells) has been recorded for QRAGEDPHSFYFPGQFAF [Chem^139-156] ?
// result 2.9

// query Endpoint output: EC50 of arrestin3 recruitment to GPR1-eYFP (BRET with Rluc8-Arr3, COS-7 cells) of FPGQFAFS [Chem^150-157] . Value?
// result 22
